Values compiled from patent US7361666B2.

Measured pIC50 on κ opioid receptor (Cavia porcellus, UniProt P41144) follows.
Sequence (P41144 whole entry): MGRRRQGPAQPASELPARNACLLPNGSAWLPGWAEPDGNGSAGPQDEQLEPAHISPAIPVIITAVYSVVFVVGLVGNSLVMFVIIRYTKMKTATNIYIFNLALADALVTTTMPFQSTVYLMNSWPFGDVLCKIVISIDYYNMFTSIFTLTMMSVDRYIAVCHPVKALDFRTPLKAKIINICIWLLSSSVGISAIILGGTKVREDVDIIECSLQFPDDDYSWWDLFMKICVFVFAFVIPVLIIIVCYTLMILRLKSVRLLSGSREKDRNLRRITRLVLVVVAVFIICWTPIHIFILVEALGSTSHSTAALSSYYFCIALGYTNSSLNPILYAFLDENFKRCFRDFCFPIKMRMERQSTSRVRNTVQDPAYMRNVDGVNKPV
pIC50: −log10 of the molar value.

Reference set, count: 3
- Compound: "CCC(=O)N(CC1CCCN(CCc2ccccc2)C1)C(C)c1ccccc1 (single isomer, unassigned) [Compound 224]"
  System Under Test: "κ opioid receptor (Cavia porcellus, UniProt P41144)"
  pIC50: "< 6.00"
- Compound: "CCC(=O)N(CC1CCCN(CCc2ccccc2)C1)C(C)c1ccccc1 (single isomer, unassigned) [Compound 225]"
  System Under Test: "κ opioid receptor (Cavia porcellus, UniProt P41144)"
  pIC50: "< 6.00"
- Compound: "CCC(=O)N(CC1CCCN(CCc2ccccc2)C1)C(C)c1ccccc1 (single isomer, unassigned) [Compound 222]"
  System Under Test: "κ opioid receptor (Cavia porcellus, UniProt P41144)"
  pIC50: "< 6.00"

I am curious: what pIC50 value has been reported for CCC(=O)N(CC1CCCN(CCc2ccccc2)C1)C(C)c1ccccc1 (single isomer, unassigned) [Compound 220] ?
> 6.00

I am curious: what pIC50 value has been reported for CCC(=O)N(CC1CCCN(CCc2ccccc2)C1)C(C)c1ccccc1 (single isomer, unassigned) [Compound 221] ?
> 6.00

I am curious: what pIC50 value has been reported for CCC(=O)N(CC1CCCN(CCc2ccccc2)C1)C(C)c1ccccc1 (single isomer, unassigned) [Compound 223] ?
< 6.00
